- System: Escherichia coli
- experimental-protocol: Bactericidal activity against Escherichia coli NIHJ JC-2 preincubated for 5 mins before addition of growth medium measured after 40 to 48 hrs
- Format: functional
reported-property: MBC (µg/mL)

>>> df
                    structure_smiles_string  reported_property  reported_measurement
0  CC(=O)O.CCCCCCCCNC1=NC(C)(C)NC(NCc2ccc(C(F)(F)F)cc2)=N1                MBC                   3.1
1  N=C(NCCCCCCNC(=N)NC(=N)Nc1ccc(Cl)cc1)NC(=N)Nc1ccc(Cl)cc1.O=C(O)[C@H](O)[C@@H](O)[C@H](O)[C@H](O)CO                MBC                  15.6
2  CC(=O)O.CCCCCCCCCCCCNC1=NC(C)(C)NC(NCC)=N1                MBC                   3.1
3  CC(=O)O.CCCCCCCCNC1=NC(C)(C)NC(NCc2ccc(Cl)cc2)=N1                MBC                   1.6
4  CCCCCCCCCCNC1=NC(C)(C)NC(NCCc2ccc(OC)cc2)=N1.Cl                MBC                   1.6
5  CC(=O)O.CCCCCCCCCNC1=NC(C)(C)NC(NCCc2ccccc2)=N1                MBC                   3.1
6  CC(=O)O.CCCCCCCCCCNC1=NC(C)(C)NC(NCCc2ccccc2)=N1                MBC                  12.5
7  CC(=O)O.CCCCCCCNC1=NC(C)(C)NC(NCCCCCCC)=N1                MBC                   3.1
8  CC(=O)O.CCCCCCCCNC1=NC(C)(C)NC(NCc2ccccc2)=N1                MBC                   6.3
9  CC(=O)O.CCCCCCCNC1=NC(C)(C)NC(NCc2ccc(C)cc2)=N1                MBC                  12.5

* * *

MIC overview
- System: Escherichia coli
- experimental-protocol: Antibacterial activity against Escherichia coli NIHJ JC-2 after 24 hrs
- Type: functional
reported-property: MIC (µg/mL)

>>> df
                     structure_smiles_string  measurement_units  reported_measurement
 0  CC(=O)O.CCCCCCCNC1=NC(C)(C)NC(NCc2ccc(C)cc2)=N1              µg/mL                    25
 1  CC(=O)O.CCCCCCCCNC1=NC(C)(C)NC(Nc2ccccc2)=N1              µg/mL                    25
 2  CC(=O)O.CCCCCCCCNC1=NC(C)(C)NC(NCCCCCC)=N1              µg/mL                  12.5
 3  CC(=O)O.CCCCCCCCCCCCNC1=NC(C)(C)NC(NCC)=N1              µg/mL                  12.5
 4  CC(=O)O.CCCCCCCCCCCNC1=NC(C)(C)NC(NCc2ccccc2)=N1              µg/mL                   100
 5  CC(=O)O.CCCCCCCCCCNC1=NC(C)(C)NC(NCCc2ccccc2)=N1              µg/mL                    25
 6  CC(=O)O.CCCCCCCCCNC1=NC(C)(C)NC(NCc2ccc(C)cc2)=N1              µg/mL                    25
 7  CC(=O)O.CCCCCCCCNC1=NC(C)(C)NC(NCc2ccc(C)cc2)=N1              µg/mL                  12.5
 8  CC(=O)O.CCCCCCCCNC1=NC(C)(C)NC(NCCCCCCCC)=N1              µg/mL                   100
 9  CC(=O)O.CCCCCCCNC1=NC(C)(C)NC(Nc2ccccc2)=N1              µg/mL                    50
10  CC(=O)O.CCCCCCCCCCNC1=NC(C)(C)NC(Nc2ccccc2)=N1              µg/mL                  12.5

* * *

- System: Staphylococcus aureus
- experimental-protocol: Bactericidal activity against Staphylococcus aureus 209PJC preincubated for 5 mins before addition of growth medium measured after 40 to 48 hrs
- Assay type: functional
reported-property: MBC (µg/mL)

                    structure_smiles_string  reported_property  reported_measurement
0  CC(=O)O.CCCCCCCCNC1=NC(C)(C)NC(NCCCCCC)=N1                MBC                   6.3
1  CC(=O)O.CCCCCCCCNC1=NC(C)(C)NC(NCc2ccc(Cl)cc2)=N1                MBC                   3.1
2  CC(=O)O.CCCCCCCCCNC1=NC(C)(C)NC(NCCc2ccccc2)=N1                MBC                   6.3
3  N=C(NCCCCCCNC(=N)NC(=N)Nc1ccc(Cl)cc1)NC(=N)Nc1ccc(Cl)cc1.O=C(O)[C@H](O)[C@@H](O)[C@H](O)[C@H](O)CO                MBC                  62.5
